These measurements were taken from patent US8901313B2.

Target: nuclear factor-kappa B (NF-kB)-inducing kinase (NIK) (Homo sapiens)
Construct: made in house; host or cells: baculovirus-infected insect cells
Assay: NIK Enzyme Inhibition Assay (Transcreener ADP assay)
Format: biochemical
Conditions: purified NIK 0.2-1 nM, 10 uM ATP, fluorescence polarization, Morrison's quadratic equation; read-out: inhibitory value (Ki) for NIK
Observable: Ki (nM)

>  <Compound>
Cc1cnc(C(C)(O)C#Cc2ccc3c(C)nn(-c4ccnc(N)n4)c3c2)s1 (centres unmarked)

>  <Test Result>
1.6

$$$$
>  <Compound>
CC(O)(C#Cc1ccc2c(C(=O)N3CC4CC3CO4)nn(-c3ccnc(N)n3)c2c1)c1ncccn1 (centres unmarked)

>  <Test Result>
7

$$$$
>  <Compound>
N#Cc1ccc2cnn(-c3nc(N)ncc3N)c2c1

>  <Test Result>
45.9

$$$$

A. Cc1csc(C(C)(O)C#Cc2ccc3c(C)nn(-c4ccnc(N)n4)c3c2)n1 (centres unmarked)
B. CC(O)(C#Cc1ccc2c(CO)nn(-c3ccnc(N)n3)c2c1)c1ncccn1 (centres unmarked)
C. Cc1cc(C(C)(O)C#Cc2ccc3nc(OCC(F)(F)F)n(-c4ccnc(N)n4)c3c2)no1 (centres unmarked)
D. Cc1nn(-c2ccnc(N)n2)c2cc(C#CC(C)(O)c3nccn3C)ccc12 (centres unmarked)
E. Cc1nc([C@](C)(O)C#Cc2ccc3c(C(=O)N4CCCCC4)nn(-c4nc(N)ncc4Cl)c3c2)no1
Arrange the 5 compounds from largest to smallest Ki. Use the labels to give the requested order.
A, D, E, B, C
(A: 575 nM, D: 54 nM, E: 10 nM, B: 6 nM, C: 2 nM)

----------
Biological target: nuclear factor-kappa B (NF-kB)-inducing kinase (NIK) (Homo sapiens, UniProt Q99558)
Construct: made in house; host or cells: baculovirus-infected insect cells
Sequence (Q99558 whole entry): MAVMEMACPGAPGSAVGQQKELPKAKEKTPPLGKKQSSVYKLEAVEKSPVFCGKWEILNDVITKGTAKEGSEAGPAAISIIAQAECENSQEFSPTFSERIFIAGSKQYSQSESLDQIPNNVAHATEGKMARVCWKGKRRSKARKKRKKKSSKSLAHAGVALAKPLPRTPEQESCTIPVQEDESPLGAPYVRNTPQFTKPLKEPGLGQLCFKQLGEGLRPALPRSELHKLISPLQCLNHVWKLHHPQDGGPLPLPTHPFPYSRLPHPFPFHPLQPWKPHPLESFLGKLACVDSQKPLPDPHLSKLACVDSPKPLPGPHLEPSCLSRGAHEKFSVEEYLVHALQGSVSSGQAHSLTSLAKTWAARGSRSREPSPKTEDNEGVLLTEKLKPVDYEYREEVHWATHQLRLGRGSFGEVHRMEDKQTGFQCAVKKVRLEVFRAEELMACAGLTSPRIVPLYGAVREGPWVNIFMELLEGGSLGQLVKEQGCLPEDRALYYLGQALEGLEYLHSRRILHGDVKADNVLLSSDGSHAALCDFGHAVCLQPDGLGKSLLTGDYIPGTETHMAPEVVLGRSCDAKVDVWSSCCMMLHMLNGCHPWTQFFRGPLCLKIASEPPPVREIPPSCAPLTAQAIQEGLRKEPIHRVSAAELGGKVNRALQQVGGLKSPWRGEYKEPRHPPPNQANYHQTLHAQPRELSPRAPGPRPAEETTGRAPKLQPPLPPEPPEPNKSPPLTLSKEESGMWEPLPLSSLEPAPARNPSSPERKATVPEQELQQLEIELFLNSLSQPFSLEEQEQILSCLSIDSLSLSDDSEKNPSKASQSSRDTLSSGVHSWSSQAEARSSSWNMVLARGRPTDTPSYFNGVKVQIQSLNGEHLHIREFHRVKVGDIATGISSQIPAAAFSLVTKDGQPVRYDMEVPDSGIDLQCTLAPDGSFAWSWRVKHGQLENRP
Test: NIK Enzyme Inhibition Assay (Transcreener ADP assay)
Assay type: biochemical
Settings: purified NIK 0.2-1 nM, 10 uM ATP, fluorescence polarization, Morrison's quadratic equation; read-out: inhibitory value (Ki) for NIK
Observable: Ki (nM)

Example results:
>  <Molecule>
CC(O)(C#Cc1ccc2c(C(=O)N3CCCC(O)C3)nn(-c3ccnc(N)n3)c2c1)c1ncccn1 (centres unmarked)

>  <Readout Units>
nM

>  <Test Result>
11

$$$$
>  <Molecule>
CN(C(=O)c1nn(-c2ccnc(N)n2)c2cc(C#CC(C)(O)c3ncccn3)ccc12)c1ccccn1 (centres unmarked)

>  <Readout Units>
nM

>  <Test Result>
7

$$$$
>  <Molecule>
CC(O)(C#Cc1ccc2c(C(=O)NCC#N)nn(-c3ccnc(N)n3)c2c1)c1ncccn1 (centres unmarked)

>  <Readout Units>
nM

>  <Test Result>
2

$$$$
>  <Molecule>
CC(O)(C#Cc1ccc2ncn(-c3ccnc(N)n3)c2c1)C1CC1 (centres unmarked)

>  <Readout Units>
nM

>  <Test Result>
92.1

$$$$
>  <Molecule>
CC(O)(C#Cc1ccc2ncn(-c3ccnc(N)n3)c2c1)c1nccs1 (centres unmarked)

>  <Readout Units>
nM

>  <Test Result>
0.28

$$$$

P. Cc1nc([C@](C)(O)C#Cc2ccc3c(CO)nn(-c4ccnc(N)n4)c3c2)no1
Q. N#Cc1ccc2cnn(-c3nc(N)ncc3[N+](=O)[O-])c2c1
Between the entries labeled P and Q , whose measured Ki is lower? Write down the label attached to your selection.
P
(P: 2 nM, Q: 411 nM)
